pIC50: −log10 of the molar value.
Literature compilation of pIC50 measurements on Serine/threonine-protein kinase mTOR (Homo sapiens, UniProt P42345).

Here are 3 compounds together with their reported answers.
Cc1cc(-c2cccc(NS(=O)(=O)CCCF)c2F)cc2c(N3CCOCC3)nc(-c3cccc4[nH]ncc34)nc12 ... 6.00 to 7.00
CCC1COCCN1c1nc(-c2ccc(NC(=O)NC3CC3)cc2)nc2c1C(C)S(=O)(=O)C2 (stereo not shown) ... > 7.00
Nc1ncc(-c2cc(N3CCOCC3)cc(S(=O)(=O)C3CCOC3)c2)cn1 (stereo not shown) ... 6.34

Reported pIC50 ( C[C@@H](O)C(=O)N1CCC(c2nc3c(-c4ccc(-c5ccccc5)nc4)cnn3c3[nH]ccc23)CC1 ) = 8.00 to 9.00

----------
pIC50: −log10 of the molar value.
Ok so here's the combined literature set: pIC50 for Serine/threonine-protein kinase mTOR (Homo sapiens).

Cc1ccccc1CC1(Nc2nc(N3CCOCC3)nc(-n3c(C(F)F)nc4ccccc43)n2)CC1 ... < 6.30
CC(C)Cn1c(N2CCN(S(C)(=O)=O)[C@H](C)C2)nc2c(N3CCOCC3)nc(-c3cnc(N)nc3)nc21 ... 7.00 to 7.52
COCc1cc(-c2ccc3ncc4c(c3c2)n(-c2cn(C)nc2Cl)c(=O)n4C)cnc1N ... > 8.52
O=c1[nH]c2ncc(-c3cnc4[nH]ccc4c3)cc2n1CC1(F)CCOCC1 ... > 7.30
O=c1[nH]c2ncc(-c3ccc4[nH]ccc4c3F)cc2n1CC1CCOCC1 ... > 7.30

pIC50 value, target or system Serine/threonine-protein kinase mTOR (Homo sapiens), for CN1CCN(C(=O)c2cccc(-c3cnc4c(N5CCOCC5)nc(-c5cnc(N)nc5)nc4c3)c2)CC1 : 6.70 to 7.30

For the compound COc1cc(-c2cccc(NS(=O)(=O)c3cccs3)c2F)cc2c(N3CCOCC3)nc(-c3ccc(N)nc3)nc12 , the measured pIC50 on Serine/threonine-protein kinase mTOR (Homo sapiens) was 6.00 to 7.00

pIC50 of CC(C)Cn1c(N2CCN(C(=O)CO)CC2)nc2c(N3CCOCC3)nc(-c3cnc(N)nc3)nc21 , assay on Serine/threonine-protein kinase mTOR (Homo sapiens), is 7.52 to 8.00

----------
pIC50: −log10 of the molar value.
Literature pIC50 values, system: Serine/threonine-protein kinase mTOR (Homo sapiens, UniProt P42345).

Worked examples follow.
C=CC(=O)N1CCc2ccc(-n3c(=O)ccc4cnc5ccc(-c6ccc(S(=O)(=O)NC(C)(C)C)cc6)cc5c43)cc21 ... 6.27
CN1CCN(C(=O)c2ccc(NC(=O)Nc3ccc(-c4nc(N5CCOCC5)c5ccc(-c6cncnc6)cc5n4)cc3)cc2)CC1 ... > 7.30
CC(=O)N1CCN(c2nc3c(N4CCOCC4)nc(-c4cnc(N)nc4)nc3n2CC2CC2)CC1 ... 7.52 to 8.00
O=c1[nH]c2ncc(-c3ccc(O)cc3)nc2n1CC1CCOCC1 ... 5.30 to 7.00
Cc1c(-c2cnc3[nH]c(=O)n(C[C@H]4COCCO4)c3c2)cnc2[nH]cc(F)c12 ... > 7.30
CC(=O)N1CCN(c2nc3c(N4CCOCC4)nc(-c4cnc(N)nc4)nc3n2CC(F)(F)F)CC1(C)C ... > 8.00
Cc1cnccc1-c1cc(N2CCOCC2)cc(S(=O)(=O)c2ccccc2)c1 ... 4.00

Measured pIC50 (Serine/threonine-protein kinase mTOR (Homo sapiens, UniProt P42345)), entry Cc1nn(C)cc1-n1c(=O)n(C)c2cnc3ccc(-c4ccnc(N(C)C(C)C)c4)cc3c21 : 6.31
